target: PLpro (Severe acute respiratory syndrome coronavirus, UniProt P0C6U8)
pIC50: −log10 of the molar value.
Measured attribute: pIC50

                                   compound  result
0  CCC(C)(C)NC(=O)[C@@H](c1ccn(C)c1)N(C(=O)Cn1nnc2ccccc21)c1ccc(NC(C)=O)cc1 [compound 7]  < 4.22
